TARGET_OF_ASSAY: Helios (Homo sapiens, UniProt Q96SW2+Q9UKS7)
Construct: fluorescently labelled antibodies against Helios and Ikaros; endogenous in cells; host or cells: Jurkat cells
Sequence (Q9UKS7 whole entry): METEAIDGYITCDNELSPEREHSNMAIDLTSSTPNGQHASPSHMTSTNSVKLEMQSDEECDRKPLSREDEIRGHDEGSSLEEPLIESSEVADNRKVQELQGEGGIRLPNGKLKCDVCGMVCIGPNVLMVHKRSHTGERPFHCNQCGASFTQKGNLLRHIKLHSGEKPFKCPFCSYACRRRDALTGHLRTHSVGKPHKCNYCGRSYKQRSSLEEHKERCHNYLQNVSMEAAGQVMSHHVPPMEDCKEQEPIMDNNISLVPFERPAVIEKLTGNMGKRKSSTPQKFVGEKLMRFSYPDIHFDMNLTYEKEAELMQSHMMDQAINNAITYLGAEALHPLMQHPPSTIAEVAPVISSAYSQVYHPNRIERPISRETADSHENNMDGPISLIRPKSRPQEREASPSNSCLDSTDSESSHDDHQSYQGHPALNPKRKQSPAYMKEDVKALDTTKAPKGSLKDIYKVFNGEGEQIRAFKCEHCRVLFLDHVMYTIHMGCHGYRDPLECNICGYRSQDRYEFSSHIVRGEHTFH
Sequence (Q96SW2 whole entry): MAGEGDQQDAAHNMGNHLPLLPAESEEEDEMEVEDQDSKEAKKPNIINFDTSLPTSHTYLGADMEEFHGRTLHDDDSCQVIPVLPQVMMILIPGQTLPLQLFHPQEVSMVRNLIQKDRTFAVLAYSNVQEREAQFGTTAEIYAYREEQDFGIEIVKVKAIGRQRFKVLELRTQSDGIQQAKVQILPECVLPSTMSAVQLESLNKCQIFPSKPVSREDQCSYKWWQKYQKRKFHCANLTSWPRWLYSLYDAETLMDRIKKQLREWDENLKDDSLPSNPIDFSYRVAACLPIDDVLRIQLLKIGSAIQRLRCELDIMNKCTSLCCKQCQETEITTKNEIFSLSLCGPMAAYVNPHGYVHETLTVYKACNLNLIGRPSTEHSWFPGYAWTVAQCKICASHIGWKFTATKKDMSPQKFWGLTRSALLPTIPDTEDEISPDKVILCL
Sequence (Q16531 whole entry partner): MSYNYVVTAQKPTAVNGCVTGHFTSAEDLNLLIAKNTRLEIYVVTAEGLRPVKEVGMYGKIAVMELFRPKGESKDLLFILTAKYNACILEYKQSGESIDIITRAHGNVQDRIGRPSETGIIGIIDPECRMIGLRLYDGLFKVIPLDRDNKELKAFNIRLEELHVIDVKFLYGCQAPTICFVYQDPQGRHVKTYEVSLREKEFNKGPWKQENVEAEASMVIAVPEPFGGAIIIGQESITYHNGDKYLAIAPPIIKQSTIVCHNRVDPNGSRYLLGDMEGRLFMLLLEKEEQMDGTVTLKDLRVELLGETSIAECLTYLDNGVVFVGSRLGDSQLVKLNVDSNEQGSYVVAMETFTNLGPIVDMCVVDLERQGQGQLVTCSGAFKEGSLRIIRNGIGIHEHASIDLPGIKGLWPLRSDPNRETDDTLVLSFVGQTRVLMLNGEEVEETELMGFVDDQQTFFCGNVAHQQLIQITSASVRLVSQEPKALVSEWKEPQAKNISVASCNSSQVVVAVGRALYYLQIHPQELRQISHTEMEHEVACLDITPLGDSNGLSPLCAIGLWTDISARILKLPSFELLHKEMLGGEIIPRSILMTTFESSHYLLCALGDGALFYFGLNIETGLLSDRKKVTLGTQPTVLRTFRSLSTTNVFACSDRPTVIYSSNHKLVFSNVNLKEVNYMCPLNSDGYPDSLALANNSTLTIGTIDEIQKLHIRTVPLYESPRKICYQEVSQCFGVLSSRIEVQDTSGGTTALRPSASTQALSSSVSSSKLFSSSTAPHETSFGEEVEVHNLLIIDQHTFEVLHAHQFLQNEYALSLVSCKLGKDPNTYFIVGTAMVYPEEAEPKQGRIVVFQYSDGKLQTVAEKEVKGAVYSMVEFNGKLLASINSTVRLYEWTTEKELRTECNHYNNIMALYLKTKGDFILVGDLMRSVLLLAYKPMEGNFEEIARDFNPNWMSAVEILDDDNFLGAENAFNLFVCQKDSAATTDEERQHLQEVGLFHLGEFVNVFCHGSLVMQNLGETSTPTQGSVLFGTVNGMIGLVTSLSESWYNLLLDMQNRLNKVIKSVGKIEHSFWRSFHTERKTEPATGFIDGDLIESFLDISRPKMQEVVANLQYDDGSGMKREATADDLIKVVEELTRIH
RUN_DESCRIPTION: Helios Cellular Degradation Assay (flow cytometry, Helios-PE antibody staining, 72 h)
Assay type: cell-based
DETAILS: Jurkat cells, 72 h incubation, flow cytometry
READOUT_KIND: DC50 (nM)
Numbers only; they are read as nM.

// worked examples, DC50 included
# COMPOUND, DISPLAY_UNIT, REPORTED_RESULT
data = [
    ("O=C1CCC(N2Cc3cc(-c4cc(CNCC(c5ccccc5)c5ccccc5)ccn4)ccc3C2=O)C(=O)N1 (stereo not shown) [Example 90]", "nM", 213),
    ("CC1(C)CN(Cc2ccnc(-c3ccc4c(c3)CN(C3CCC(=O)NC3=O)C4=O)c2)C1 (stereo not shown) [Example 51]", "nM", 64),
    ("CC1(C)CCN(Cc2ccnc(-c3ccc4c(c3)CN(C3CCC(=O)NC3=O)C4=O)c2)CC1 (stereo not shown) [Example 82]", "nM", 9),
    ("CC1CCCN1Cc1ccnc(-c2ccc3c(c2)CN(C2CCC(=O)NC2=O)C3=O)c1 (stereo not shown) [Example 20]", "nM", 60),
]

# next compound below
Incoming: Quote DC50 with test system Helios (Homo sapiens, UniProt Q96SW2+Q9UKS7) for CN(Cc1cccnc1)Cc1ccnc(-c2ccc3c(c2)CN(C2CCC(=O)NC2=O)C3=O)c1 (stereo not shown) [Example 159]
Outgoing: 136

---

TARGET_OF_ASSAY: Ikaros (Homo sapiens, UniProt Q13422)
Construct: fluorescently labelled antibodies against Helios and Ikaros; endogenous in cells; host or cells: Jurkat cells
Sequence (Q13422 whole entry, one chain of several): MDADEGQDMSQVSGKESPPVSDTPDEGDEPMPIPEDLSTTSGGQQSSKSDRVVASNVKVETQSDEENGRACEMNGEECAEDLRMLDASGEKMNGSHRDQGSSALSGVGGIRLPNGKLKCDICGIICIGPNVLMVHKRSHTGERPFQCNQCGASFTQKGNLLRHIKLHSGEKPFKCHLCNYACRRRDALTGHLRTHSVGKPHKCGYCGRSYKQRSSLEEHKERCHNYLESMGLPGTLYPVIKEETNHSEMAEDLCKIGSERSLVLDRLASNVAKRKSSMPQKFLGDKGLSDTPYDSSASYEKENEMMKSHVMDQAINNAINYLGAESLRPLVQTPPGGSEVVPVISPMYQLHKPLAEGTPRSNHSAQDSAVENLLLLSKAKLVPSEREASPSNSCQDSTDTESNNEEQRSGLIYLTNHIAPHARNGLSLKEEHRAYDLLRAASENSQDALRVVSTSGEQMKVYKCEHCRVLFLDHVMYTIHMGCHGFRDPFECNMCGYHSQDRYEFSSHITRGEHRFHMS
RUN_DESCRIPTION: Helios Cellular Degradation Assay, Ikaros readout (flow cytometry, Ikaros-Alexa488 antibody staining, 72 h)
Type: cell-based
DETAILS: Jurkat, Jurkat cells, 72 h incubation, flow cytometry; read-out: Ikaros Dmax
READOUT_KIND: Dmax (%)
Numbers only; they are read as %.

# COMPOUND, TARGET_OF_ASSAY, Dmax / %
data = [
    ("CCN(C)Cc1ccnc(-c2ccc3c(c2)CN(C2CCC(=O)NC2=O)C3=O)c1 (stereo not shown) [Example 4]", "Ikaros (Homo sapiens, UniProt Q13422)", 8),
    ("O=C1CCC(N2Cc3cc(-c4cc(CN5CCC[C@@H](c6ccccc6)C5)ccn4)ccc3C2=O)C(=O)N1 (stereo partly shown) [Example 135]", "Ikaros (Homo sapiens, UniProt Q13422)", 4),
]

Incoming: Quote Dmax with test system Ikaros (Homo sapiens, UniProt Q13422) for O=C1CCC(N2Cc3cc(-c4cc(CNC5(C6CC6)CCC5)ccn4)ccc3C2=O)C(=O)N1 (stereo not shown) [Example 77]
Outgoing: 12

Incoming: Quote Dmax with test system Ikaros (Homo sapiens, UniProt Q13422) for O=C1CCC(N2Cc3cc(-c4cc(CNCC(c5ccccc5)c5ccccc5)ccn4)ccc3C2=O)C(=O)N1 (stereo not shown) [Example 90]
Outgoing: 17

---

TARGET_OF_ASSAY: Helios (Homo sapiens, UniProt Q96SW2+Q9UKS7)
Construct: fluorescently labelled antibodies against Helios and Ikaros; endogenous in cells; host or cells: Jurkat cells
RUN_DESCRIPTION: Helios Cellular Degradation Assay (flow cytometry, Helios-PE antibody staining, 72 h)
Format: cell-based
DETAILS: Jurkat cells, 72 h incubation, flow cytometry
Listed next: entries and their corresponding log10 of DC50.
Units before log transform: µM; reported quantity: DC50; transform: log10.

// worked examples, log10 of DC50 included
# MOLECULE, log10 of DC50
records = [
    ("CCN(Cc1ccncc1)Cc1ccnc(-c2ccc3c(c2)CN(C2CCC(=O)NC2=O)C3=O)c1 (stereo not drawn)", -0.27),
    ("CN(C)Cc1ccnc(-c2ccc3c(c2)CN(C2CCC(=O)NC2=O)C3=O)c1 (stereo not drawn)", -1.60),
    ("O=C1CCC(N2Cc3cc(-c4cc(CN5CCCC(c6ccccc6)C5)ccn4)ccc3C2=O)C(=O)N1 (stereo not drawn)", -1.40),
    ("O=C1CCC(N2Cc3cc(-c4cc(CN5CCC(Cc6ccccc6)CC5)ccn4)ccc3C2=O)C(=O)N1 (stereo not drawn)", -1.06),
    ("O=C1CCC(N2Cc3cc(-c4cc(CNCCCN5CCOCC5)ccn4)ccc3C2=O)C(=O)N1 (stereo not drawn)", -1.20),
    ("O=C1CCC(N2Cc3cc(-c4cc(CN5CCC5c5ccccc5)ccn4)ccc3C2=O)C(=O)N1 (stereo not drawn) [Example 76]", -2.22),
    ("O=C1CCC(N2Cc3cc(-c4cc(CNCCO)ccn4)ccc3C2=O)C(=O)N1 (stereo not drawn)", -0.68),
    ("O=C1CCC(N2Cc3c(ccc(-c4cc(CN5CC(c6ccccc6)C5)ccn4)c3F)C2=O)C(=O)N1 (stereo not drawn)", -2.52),
]

Incoming: Quote log10 of DC50 with test system Helios (Homo sapiens, UniProt Q96SW2+Q9UKS7) for O=C1CCC(N2Cc3cc(-c4cc(CNCCc5ccccc5)ccn4)ccc3C2=O)C(=O)N1 (stereo not drawn)
Outgoing: -1.85

Incoming: Quote log10 of DC50 with test system Helios (Homo sapiens, UniProt Q96SW2+Q9UKS7) for O=C1CCC(N2Cc3cc(-c4nccc(CN5CC(c6ccccc6)C5)c4F)ccc3C2=O)C(=O)N1 (stereo not drawn)
Outgoing: 0.51

Incoming: Quote log10 of DC50 with test system Helios (Homo sapiens, UniProt Q96SW2+Q9UKS7) for CC1(C)CCN1Cc1ccnc(-c2ccc3c(c2)CN(C2CCC(=O)NC2=O)C3=O)c1 (stereo not drawn)
Outgoing: -0.52

---

Listed next: entries and their corresponding Dmax.
TARGET_OF_ASSAY: Helios (Homo sapiens, UniProt Q96SW2+Q9UKS7)
Construct: fluorescently labelled antibodies against Helios and Ikaros; endogenous in cells; host or cells: Jurkat cells
RUN_DESCRIPTION: Helios Cellular Degradation Assay (flow cytometry, Helios-PE antibody staining, 72 h)
Format: cell-based
DETAILS: Jurkat, Jurkat cells, 72 h incubation, flow cytometry; read-out: Helios Dmax
Just so you know, I need the unit written after the number.

// worked examples, Dmax included
# COMPOUND, Dmax
records = [
    ("CC(C)CCN(C)Cc1ccnc(-c2ccc3c(c2)CN(C2CCC(=O)NC2=O)C3=O)c1 (stereo not drawn)", "87%"),
    ("CC(=O)NCCNCc1ccnc(-c2ccc3c(c2)CN(C2CCC(=O)NC2=O)C3=O)c1 (stereo not drawn)", "60%"),
    ("C[C@H](NCc1ccnc(-c2ccc3c(c2)CN(C2CCC(=O)NC2=O)C3=O)c1)c1ccccc1 (stereo partly drawn)", "92%"),
    ("O=C1CCC(N2Cc3cc(-c4cc(CNCCc5nc6ccccc6s5)ccn4)ccc3C2=O)C(=O)N1 (stereo not drawn)", "79%"),
    ("O=C1CCC(N2Cc3cc(-c4cc(CN5CCC(Cc6ccccc6)CC5)ccn4)ccc3C2=O)C(=O)N1 (stereo not drawn)", "68%"),
    ("CN(Cc1ccc([N+](=O)[O-])cc1)Cc1ccnc(-c2ccc3c(c2)CN(C2CCC(=O)NC2=O)C3=O)c1 (stereo not drawn)", "23%"),
    ("CN1CCCN(Cc2ccnc(-c3ccc4c(c3)CN(C3CCC(=O)NC3=O)C4=O)c2)CC1 (stereo not drawn)", "10%"),
    ("NC(=O)C1CCN(Cc2ccnc(-c3ccc4c(c3)CN(C3CCC(=O)NC3=O)C4=O)c2)CC1 (stereo not drawn)", "80%"),
    ("CCCCN(C)Cc1ccnc(-c2ccc3c(c2)CN(C2CCC(=O)NC2=O)C3=O)c1 (stereo not drawn)", "87%"),
    ("O=C1CCC(N2Cc3cc(-c4cc(CN5CCC[C@H]5c5ccccc5)ccn4)ccc3C2=O)C(=O)N1 (stereo partly drawn)", "84%"),
]

Incoming: Identify Dmax associated with the compound O=C1CCC(N2Cc3cc(-c4cc(CN5CCC(c6ccccc6)CC5)ccn4)ccc3C2=O)C(=O)N1 (stereo not drawn)
Outgoing: 82%

Incoming: Identify Dmax associated with the compound CC1(C)CCN(Cc2ccnc(-c3ccc4c(c3)CN(C3CCC(=O)NC3=O)C4=O)c2)C1 (stereo not drawn)
Outgoing: 90%

Incoming: Identify Dmax associated with the compound C[C@H]1CCCCN1Cc1ccnc(-c2ccc3c(c2)CN(C2CCC(=O)NC2=O)C3=O)c1 (stereo partly drawn)
Outgoing: 53%

Incoming: Identify Dmax associated with the compound O=C1CCC(N2Cc3cc(-c4cc(CNCC5CCCO5)ccn4)ccc3C2=O)C(=O)N1 (stereo not drawn)
Outgoing: 26%

Incoming: Identify Dmax associated with the compound N#CCNCc1ccnc(-c2ccc3c(c2)CN(C2CCC(=O)NC2=O)C3=O)c1 (stereo not drawn)
Outgoing: 65%

---

Listed next: entries and their corresponding Dmax.
TARGET_OF_ASSAY: Ikaros (Homo sapiens, UniProt Q13422)
Construct: fluorescently labelled antibodies against Helios and Ikaros; endogenous in cells; host or cells: Jurkat cells
RUN_DESCRIPTION: Helios Cellular Degradation Assay, Ikaros readout (flow cytometry, Ikaros-Alexa488 antibody staining, 72 h)
Type: cell-based
DETAILS: Jurkat, Jurkat cells, 72 h incubation, flow cytometry; read-out: Ikaros Dmax
Numbers only; they are read as %.

// worked examples, Dmax included
# COMPOUND, READOUT_KIND, DISPLAY_UNIT, REPORTED_RESULT
rows = [
    ("C[C@@H](c1ccccc1)N(C)Cc1ccnc(-c2ccc3c(c2)CN(C2CCC(=O)NC2=O)C3=O)c1 (stereo partly drawn)", "Dmax", "%", 0),
    ("O=C1CCC(N2Cc3cc(-c4nccc(CN5CCC5c5ccccc5)c4F)ccc3C2=O)C(=O)N1 (stereo not drawn)", "Dmax", "%", 14),
]

# next compound below
Incoming: Identify Dmax associated with the compound NC(=O)CCNCc1ccnc(-c2ccc3c(c2)CN(C2CCC(=O)NC2=O)C3=O)c1 (stereo not drawn)
Outgoing: 5

Where these numbers come from: patent US11548870B2
